For each entry below, report its pIC50 value.
target: recombinant form of Glutaminase 1 (GAC) (Homo sapiens); assay: Recombinant Enzyme Assay (GAC coupled to GDH, NADH absorbance, no preincubation); format: biochemical; conditions: no preincubation; read-out: GAC Delta N2 IC50 no preinc
Give bare numbers, as −log10 of the molar value.

# annotated cases, reported pIC50 shown
[[record]]
compound = "O=C(Cc1ccccc1)Nc1nnc(CCCCc2nnc(NC(=O)Cc3ccccc3CO)s2)s1 [Compound 333]"
result_type = "pIC50"
measurement = 7.00

[[record]]
compound = "COC(=O)Nc1nnc(CCCCc2nnc(NC(=O)Cc3ccccc3)s2)s1 [Compound 387]"
result_type = "pIC50"
measurement = 5.92

[[record]]
compound = "COc1ccccc1CC(=O)Nc1nnc(CCSCCc2nnc(NC(=O)Cc3ccccc3OC)s2)s1 [Compound 219]"
result_type = "pIC50"
measurement = 6.77


Proceed to the following item.
Query: Please look up its pIC50: O=C(CC1CC1)Nc1nnc(CCSCCc2nnc(NC(=O)CC3CC3)s2)s1 [Compound 83]
Response: 5.41

###

Biological target: recombinant form of Glutaminase 1 (GAC) (Homo sapiens)
Assay: Recombinant Enzyme Assay - Time Dependence (60 minutes enzyme/compound preincubation)
Type: biochemical
Details: read-out: GAC Delta N2 IC50 60 min
Description: The enzyme/compound mix was sealed with sealing foil (USA Scientific) and allowed to incubate, with mild agitation, for 60 minutes at 20° C. Enzymatic reaction was started with the addition of 50 μL of substrate solution (50 mM Tris-HCl pH 8.0, 0.2 mM EDTA, 150 mM K2HPO4, 0.1 mg/ml BSA, 1 mM DTT, 20 mM L-glutamine, 2 mM NAD^+, and 10 ppm antifoam) and read in a Molecular Devices M5 plate reader at 20° C. The plate reader was configured to read absorbance (λ=340 nm) in kinetic mode for 15 minutes. […]
result_type: pIC50
Give bare numbers, as −log10 of the molar value.

[[record]]
compound = "CC(C)Cc1ccc(C(C)C(=O)Nc2nnc(CCCCc3ccc(NC(=O)Cc4ccccc4)nn3)s2)cc1 (stereo not shown)"
test_system = "recombinant form of Glutaminase 1 (GAC) (Homo sapiens)"
result_type = "pIC50"
measurement = 7.60


# batch: return pIC50 for each of the 3 compounds below
1. CC(NC(=O)OC(C)(C)C)c1cccc(CC(=O)Nc2ccc(CCCCc3nnc(NC(=O)C(C)c4ccccc4)s3)nn2)c1 (stereo not shown)
2. CCCC(=O)OCN(C(=O)C(CO)c1cccc(CNC(=O)OC(C)(C)C)c1)c1nnc(CCCCc2ccc(NC(=O)Cc3ccccc3)nn2)s1 (stereo not shown)
3. Cc1ccccc1CC(=O)Nc1nnc(CCCCc2ccc(NC(=O)Cc3ccccc3Cl)nn2)s1

Response:
1: 8.05; 2: 6.37; 3: 8.15

###

target: recombinant form of Glutaminase 1 (GAC) (Homo sapiens); experiment: Recombinant Enzyme Assay (GAC coupled to GDH, NADH absorbance, no preincubation); type: biochemical; settings: no preincubation; read-out: GAC Delta N2 IC50 no preinc
result_type: IC50

[[record]]
compound = "O=C(Cc1ccc(C(F)(F)F)cc1)Nc1nnc(CCSCCc2nnc(NC(=O)Cc3ccc(C(F)(F)F)cc3)s2)s1 [Compound 183]"
result_type = "IC50"
measurement = "> 20 µM"

[[record]]
compound = "O=C(Cc1ccccc1)Nc1nnc(CSCc2nnc(NC(=O)Cc3ccccc3)s2)s1 [Compound 145]"
result_type = "IC50"
measurement = "> 20 µM"

[[record]]
compound = "O=C(Nc1nnc(CCCCc2nnc(NC(=O)C3(C(F)(F)F)CC3)s2)s1)C1(C(F)(F)F)CC1 [Compound 62]"
result_type = "IC50"
measurement = "> 50 µM"


Next compound, IC50 to be filled in.
Query: Give its IC50 value. Item: O=C(OCCCN1CCOCC1)OCN(C(=O)Cc1ccccc1)c1nnc(CCSCCc2nnc(N(COC(=O)OCCCN3CCOCC3)C(=O)Cc3ccccc3)s2)s1 [Compound 28]
Response: > 50 µM

###

target: recombinant form of Glutaminase 1 (GAC) (Homo sapiens, UniProt O94925); assay: Recombinant Enzyme Assay (GAC coupled to GDH, NADH absorbance, no preincubation); assay type: biochemical; settings: no preincubation; read-out: GAC Delta N2 IC50 no preinc
result_type: pIC50
One number for each entry, as −log10 of the molar value.

A selection of reference data follows.
[[record]]
compound = "O=C(Cc1cccc(Br)c1)Nc1nnc(CCSCCc2nnc(NC(=O)Cc3cccc(Br)c3)s2)s1"
measurement = 5.13

[[record]]
compound = "CC(C)(C)OC(=O)N1CCN(C(C(=O)Nc2nnc(CCSCCc3nnc(NC(=O)Cc4ccccc4)s3)s2)c2ccccc2)CC1 (centres unmarked)"
measurement = 5.47

[[record]]
compound = "CN(C)CC(=O)Nc1nnc(CCCCc2nnc(NC(=O)Cc3ccccc3)s2)s1"
measurement = 5.19

[[record]]
compound = "CC(=O)NCC(C(=O)Nc1nnc(CCCCc2nnc(NC(=O)C(CNC(C)=O)c3ccccc3)s2)s1)c1ccccc1 (centres unmarked)"
measurement = 5.66

[[record]]
compound = "N[C@@H](C(=O)Nc1nnc(CCSCCc2nnc(NC(=O)[C@H](N)c3ccccc3)s2)s1)c1ccccc1"
measurement = 5.08


Hi, could you look up pIC50 for each item in my list?
1. O=C(Cc1cccnc1)Nc1nnc(CCCCc2nnc(NC(=O)Cc3cccnc3)s2)s1
2. COc1cccc(C(CO)C(=O)Nc2nnc(CCSCc3nnc(NC(=O)C(CO)c4cccc(OC)c4)s3)s2)c1 (centres unmarked)

Response:
[6.70, 6.72]

###

molecular target: recombinant form of Glutaminase 1 (GAC) (Homo sapiens, UniProt O94925); assay: Recombinant Enzyme Assay (GAC coupled to GDH, NADH absorbance, no preincubation); type: biochemical; conditions: no preincubation; read-out: GAC Delta N2 IC50 no preinc
pIC50: −log10 of the molar value.
Record form. Attribute: pIC50. Fill in for each entry.

Recorded pIC50, per entry:
[[record]]
molecule = "O=C(Nc1nnc(CCSCCc2nnc(NC(=O)C3CC4CCC3C4)s2)s1)C1CC2CCC1C2 (stereo not drawn) [Compound 38]"
measurement = "< 4.30"

[[record]]
molecule = "O=C(CCc1ccccc1)Nc1nnc(CCCCc2nnc(NC(=O)CCc3ccccc3)s2)s1 [Compound 106]"
measurement = "< 4.70"

[[record]]
molecule = "CC(=O)OCC(=O)Nc1nnc(CCSCCc2nnc(NC(=O)CO)s2)s1 [Compound 254]"
measurement = "< 4.70"

[[record]]
molecule = "O=C(Cc1cccc(-c2cccnc2)c1)Nc1nnc(CCCCc2nnc(NC(=O)Cc3cccc(-c4cccnc4)c3)s2)s1 [Compound 312]"
measurement = "< 4.70"

[[record]]
molecule = "O=C(CC1CCNCC1)Nc1nnc(CCSCCc2nnc(NC(=O)CC3CCNCC3)s2)s1 [Compound 129]"
measurement = "< 4.70"

[[record]]
molecule = "O=C(CC1CCCC1)Nc1nnc(CCSCCc2nnc(NC(=O)CC3CCCC3)s2)s1 [Compound 58]"
measurement = "< 4.30"


Batch lookup, pIC50 per entry.
1. CCCC(=O)OCN(C(=O)Cc1ccccc1)c1nnc(CCSCCc2nnc(N(COC(=O)CCC)C(=O)Cc3ccccc3)s2)s1 [Compound 8]
2. O=C(Nc1nnc(CCCCc2nnc(NC(=O)C3CCCC3)s2)s1)C1CCCC1 [Compound 53]
3. O=C(Cc1ccccc1)Nc1nnc(C[C@@H]2C[C@H]2Cc2nnc(NC(=O)Cc3ccccc3)s2)s1 [Compound 1035]

Response:
< 4.30
< 4.30
< 4.70

###

biological target: recombinant form of Glutaminase 1 (GAC) (Homo sapiens, UniProt O94925); test: Recombinant Enzyme Assay (GAC coupled to GDH, NADH absorbance, no preincubation); format: biochemical; settings: no preincubation; read-out: GAC Delta N2 IC50 no preinc
In plain terms, low IC50, meaning strictly below 9 µM, gives yes, and everything else gives no.

[[record]]
compound = "O=C(CC1CCNCC1)Nc1nnc(CCCCc2nnc(NC(=O)CC3CCNCC3)s2)s1"
label = "no"

[[record]]
compound = "COCC(C(=O)Nc1nnc(CCSCCc2nnc(NC(=O)C(COC)c3ccccc3)s2)s1)c1ccccc1 (centres unmarked)"
label = "yes"

[[record]]
compound = "C[C@H](N)C(=O)Nc1nnc(CCSCCc2nnc(NC(=O)[C@H](C)N)s2)s1"
label = "no"

[[record]]
compound = "O=C(Cc1ccccc1)Nc1ccc(CCCCc2nnc(NC(=O)C(OC(=O)CCN3CCOCC3)c3ccccc3)s2)nn1 (centres unmarked)"
label = "yes"

[[record]]
compound = "O=C(Cc1ccncc1)Nc1nnc(CCSCCc2nnc(NC(=O)Cc3ccncc3)s2)s1"
label = "yes"


Query: In plain terms, does `O=C(Cc1ccsc1)Nc1nnc(CCSCCc2nnc(NC(=O)Cc3ccsc3)s2)s1` come in under 9 µM for IC50?
Response: yes

###

biological target: recombinant form of Glutaminase 1 (GAC) (Homo sapiens); assay: Recombinant Enzyme Assay (GAC coupled to GDH, NADH absorbance, no preincubation); format: biochemical; conditions: no preincubation; read-out: GAC Delta N2 IC50 no preinc
pIC50: −log10 of the molar value.
result_type: pIC50

Hi, could you look up pIC50 for each item in my list?
1. CC(C)(C)OC(=O)Nc1ccc(CC(=O)Cc2nnc(CCCCc3nnc(NC(=O)Cc4ccc(NC(=O)OC(C)(C)C)cc4)s3)s2)cc1 [Compound 192]
2. COc1cccc(CC(=O)Nc2nnc(CCCCc3nnc(NC(=O)Cc4cccc(OC)c4OC)s3)s2)c1OC [Compound 260]
3. CC(O)(C(=O)Nc1nnc(CCSCCc2nnc(NC(=O)C(C)(O)C(F)(F)F)s2)s1)C(F)(F)F (stereo not drawn) [Compound 109]

Response:
1. < 4.70
2. 6.82
3. < 4.70
